- test method notes: Inhibition of Escherichia coli DXR
property label: pIC50
pIC50 field: float, defined as -log10 of concentration (mol/L).

Use the examples below as a reference point.
CN(O)C(=O)CCCP(=O)(O)O	7.01
CC(=O)N(O)CCCP(=O)(O)O	7.21
CN(O)C(=O)OCCP(=O)(O)O	5.52
CN(O)C(=O)COCP(=O)(O)O	7.14
O=CN(O)COCP(=O)(O)O	5.95
CC(=O)N(O)COCP(=O)(O)O	7.06

[in] Which measured pIC50 value corresponds to O=CN(O)CCCP(=O)(O)O ?
[out] 7.27

* * *

- test method notes: Inhibition of Escherichia coli DXR
Consider the following compounds and their measured IC50 readings.

Use the examples below as a reference point.
CN(O)C(=O)COCP(=O)(OCOC(=O)C(C)(C)C)OCOC(=O)C(C)(C)C [BIS(PIVALOYLOXYMETHYL)ESTER]	> 30 µM
O=C(NO)OCCP(=O)(O)O	> 3 µM
CC(=O)N(O)CCCP(=O)(OCOC(=O)C(C)(C)C)OCOC(=O)C(C)(C)C	> 30 µM

[in] Which measured IC50 value corresponds to O=C(COCP(=O)(O)O)NO ?
[out] > 3 µM
